These measurements were taken from the supplement of paper PMC10567573.

B1: ANKRD44 (parent)
chain: FHCIETLVTTGANVNETDDWGRTA

Variants of: B1
Experiment: protein stability index of a GFP-peptide fusion (GPS, HEK-293T) (PSI 1-6); higher = more stable;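 note: lentivirally expressed fusions sorted by FACS into six bins by GFP to DsRed ratio, PSI derived from sequencing read proportions per bin multiplied by bin number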
Conditions: c terminus: a fixed tail appended
ASSAY_READOUT: protein stability index
Numbers only.

Some solved entries appear below for comparison.
T17D ... 2.29
H2M ... 2.64
N15F ... 1.96

Need protein stability index for each of these variants.
1. C3Y
2. V14I
3. T17P
4. T6Y
5. T23R
6. G21C

1: 2.19; 2: 1.82; 3: 2.6; 4: 3.59; 5: 2.05; 6: 1.76

Need protein stability index for each of these variants.
1. T10N
2. V14L
3. C3T
4. N15P
5. E5Q

1. 2.66
2. 2.08
3. 2.65
4. 2.34
5. 1.48

Need protein stability index for each of these variants.
1. D18H
2. R22D
3. R22L
4. E16V
5. G21H
6. E5W

[1.54, 3.09, 2.5, 1.64, 2.32, 2.26]

Need protein stability index for each of these variants.
1. T17Y
2. N13W
3. T10S
4. W20I
5. C3R
6. C3V
7. H2E
8. T23G

1. 1.9
2. 1.77
3. 2.08
4. 2.4
5. 2.47
6. 2.62
7. 3.9
8. 2.42

Need protein stability index for each of these variants.
1. T6W
2. R22H
3. T23E
4. C3N

3.88
1.98
2.71
2.21

Need protein stability index for each of these variants.
1. L7F
2. A24Y
3. T9A
4. N15I
5. H2A
6. L7H

[2.86, 1.78, 2.01, 1.54, 2.89, 2.56]

Need protein stability index for each of these variants.
1. D18T
2. D18Y
3. V14A

1. 1.85
2. 2.46
3. 2.2

Given "E16S" , state its recorded protein stability index.
1.78
